Assay: DPPH free radical scavenging assay
Conditions: read-out: DPPH Scavenging (IC50); concentration causing 50% loss of initial DPPH free radical; mean ± SD, n = 3; 60 min, methanol
Note to self: use class 1 only for IC50 readings below 200 µM; a reading exactly at 200 µM still gets class 0.

Item COc1ccc(C(=O)CN2CCN(Cc3ccc([N+](=O)[O-])cc3)CC2)c(O)c1 : IC50 beneath 200 µM, strictly?
class 1

Please indicate whether the reported IC50 of COc1ccc(C(=O)CN2CCN(Cc3ccc(Cl)cc3)CC2)c(O)c1 is strictly below 200 µM.
class 1

Does the reported IC50 of the following molecule sit strictly below 200 µM? COc1ccc(C(=O)CN2CCN(Cc3ccccc3)CC2)c(O)c1
class 1

Below 200 µM on IC50? Entry COc1ccc(C(=O)CN2CCN(Cc3ccc(C)cc3)CC2)c(O)c1
class 1

Input COc1ccc(C(C)=O)c(O)c1 [Paeonol, 2-hydroxy-4-methoxy-acetophenone] ; condition: IC50 strictly below 200 µM. Does it hold?
class 0

# credit: paper PMC6272137
